assaySystem: F protein mutant RSV-DS-Cav1-A with a DS-Cav1 structure before fusion (respiratory syncytial virus subtype A, …, UniProt P03420 26-513)
measurementLabel: koff (s⁻¹)

>>> experimentalvalue("anti-RSV monoclonal antibody Palivizumab (Hu1129) (antibody, V domains shown) VH: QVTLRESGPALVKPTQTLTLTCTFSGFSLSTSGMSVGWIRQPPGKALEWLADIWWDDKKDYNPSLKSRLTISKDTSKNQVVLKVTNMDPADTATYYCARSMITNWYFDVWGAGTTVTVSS VL: DIQMTQSPSTLSASVGDRVTITCKCQLSVGYMHWYQQKPGKAPKLWIYDTSKLASGVPSRFSGSGSGTEFTLTISSLQPDDFATYYCFQGSGYPFTFGGGTKLEIK")
"8.2e-05"
>>> experimentalvalue("anti-RSV monoclonal antibody Nirsevimab (MEDI8897) (antibody, V domains shown) VH: QVQLVQSGAEVKKPGSSVMVSCQASGGLLEDYIINWVRQAPGQGPEWMGGIIPVLGTVHYGPKFQGRVTITADESTDTAYMELSSLRSEDTAMYYCATETALVVSETYLPHYFDNWGQGTLVTVSS VL: DIQMTQSPSSLSAAVGDRVTITCQASQDIVNYLNWYQQKPGKAPKLLIYVASNLETGVPSRFSGSGSGTDFSLTISSLQPEDVATYYCQQYDNLPLTFGGGTKVEIK")
"1.5e-05"
>>> experimentalvalue("anti-RSV monoclonal antibody Clesrovimab (RB1) (antibody, V domains shown) VH: EVQLVESGGGLVRPGRSLRLSCTVSGFSFDDSAMSWVRQAPGKGLEWISFIKSKTYGGTKEYAASVKGRFTISRDDSKNIAYLQMNSLKTEDTAVYYCTRGAPYGGNSDYYYGLDVWGQGTTVTVSS VL: DIQMTQSPSSLSASVGDRVTITCRTSQDVRGALAWYQQKPGKAPKLLIFDASSLETGVPSRFSGSGSGTVFTLTISSLQPEDFAAYYCQQFLDFPFTFGQGTRLEIK")
0.000351
>>> experimentalvalue("recombinant monoclonal antibody R3B1h1 against F protein of RSV (human IgG1-K version) (antibody, V domains shown) VH: QVQLVQSGAEVKKPGSSVKVSCKASGGLLEDYIINWVRQAPGQGLEWMGGIIPVLGTVHYGPKFQGRVTITADESTSTAYMELSSLRSEDTAVYYCATETAIVVTESYRPHFFDNWGQGTLVTVSS VL: DIQMTQSPSSLSASVGDRVTITCQASQDIVNYLNWYQQKPGKAPKLLIYVASNLETGVPSRFSGSGSGTDFTFTISSLQPEDIATYYCQEFAGLALNFGGGTKVEIKR")
"2.37e-05"

Reference source: patent US20250388652A1
